Origin of measurements: patent US20240270821A1

Answer each item with its documented Relative cAMP EC50.
tested_on: human glucagon receptor (human) (UniProt P47871)
Sequence (P47871 26-477): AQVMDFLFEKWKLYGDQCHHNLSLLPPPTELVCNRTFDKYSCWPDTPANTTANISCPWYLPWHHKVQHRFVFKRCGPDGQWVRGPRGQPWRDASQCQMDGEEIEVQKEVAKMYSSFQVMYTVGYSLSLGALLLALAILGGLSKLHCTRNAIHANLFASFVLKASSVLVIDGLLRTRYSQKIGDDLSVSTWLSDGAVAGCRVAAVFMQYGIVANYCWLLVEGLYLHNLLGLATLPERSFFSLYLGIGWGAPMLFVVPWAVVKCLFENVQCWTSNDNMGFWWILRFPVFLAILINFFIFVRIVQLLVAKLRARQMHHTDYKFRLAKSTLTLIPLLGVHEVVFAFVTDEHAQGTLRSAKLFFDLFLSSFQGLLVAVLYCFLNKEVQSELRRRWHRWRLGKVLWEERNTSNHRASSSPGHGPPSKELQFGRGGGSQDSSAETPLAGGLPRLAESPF
assay_protocol: cell-based or functional assay

## Input Any idea what its Relative cAMP EC50 is? The binder is YXQGTFTSDXSQXLDXKAQXQFIQXLIEXGPSSGEPPPSGGGE (non-natural residues; lysine acylated with C18 diacid; C-terminal amide; synthetic construct; SITE 2: note = 2-Aminoisobutyric Acid; SITE 10: note = 3-(4-Pyridyl)-L-alanine; SITE 13: note = alpha-methyl-leucine; SITE 16: note = L-ornithine; SITE 17: note = Lysine is chemically modified through conjugation of the epsilon-amino group of the Lysine side chain with D-Glutami) [Example 1129]
## Output 6.11 nM

## Input Also need YXQGTFTSDFSKXLDKKAQXAFIEYLLEGGPSSGAPPPSEG (not fully specified; synthetic construct; SITE 2: note = 2-Aminoisobutyric Acid; SITE 13: note = alpha-methyl-leucine; SITE 17: note = Lysine is chemically modified through conjugation of the epsilon-amino group of the Lysine side chain with (2-[2-(2-Amino-ethoxy)-ethoxy]-acetyl)-(gamma-Glu)-CO-(CH2) 16-CO2H; SITE 20: n) [Example 48] , thanks.
## Output 3.8 nM

## Input Also need YXQGTFTSDFSKXLDKKAQXAFIEYLLEXGPSSGAPPPGGS (acylated Lys; Aib, αMeL non-natural; C-terminal amide; synthetic construct; SITE 2: note = 2-Aminoisobutyric Acid; SITE 13: note = alpha-methyl-leucine; SITE 17: note = Lysine is chemically modified through conjugation of the epsilon-amino group of the Lysine side chain with (2-[2-(2-Amino-ethoxy)-ethoxy]-acetyl)-(gamma-Glu)-CO-(CH2) 18-CO2H; SITE 20: n) [Example 43] , thanks.
## Output 2.71 nM

## Input Also need YXQGTXTSDYSIXLDKKAQXAFIEYLEEGGPSSGAPPPSEG (synthetic construct; SITE 2: note = 2-Aminoisobutyric Acid; SITE 6: note = alpha-methyl-2-fluoro-L-phenylalanine; SITE 13: note = alpha-methyl-leucine; SITE 17: note = Lysine is chemically modified through conjugation of the epsilon-amino group of the Lysine side chain with (2-[2-(2-Amino-ethoxy)-et)) [Example 431] , thanks.
## Output 3.32 nM

## Input Also need YXQGTFTSDXSQXLDXKAQXAFIEYLIQXGPSSGEPPPSGSEE (not fully specified; non-natural residues, γGlu-C18 diacid acyl on K, C-terminal amide; synthetic construct; SITE 2: note = 2-Aminoisobutyric Acid; SITE 10: note = 3-(4-Pyridyl)-L-alanine; SITE 13: note = alpha-methyl-leucine; SITE 16: note = L-ornithine; SITE 17: note = Lysine is chemically modified through conjugation of the epsilon-amino group of the Lysine side chain with D-Glutami) [Example 1102] , thanks.
## Output 4.37 nM

## Input Also need YXQGTFTSDFSRXLDKKAQXAFIEYLLEXGPSSGAPPPGGS (Aib, αMeL; acylated Lys; C-terminal amide; synthetic construct; SITE 2: note = 2-Aminoisobutyric Acid; SITE 13: note = alpha-methyl-leucine; SITE 17: note = Lysine is chemically modified through conjugation of the epsilon-amino group of the Lysine side chain with (2-[2-(2-Amino-ethoxy)-ethoxy]-acetyl)-(gamma-Glu)-CO-(CH2) 18-CO2H; SITE 20: n) [Example 42] , thanks.
## Output 5.83 nM
